Test system: Fibroblast
protocol summary: Multiplex assay against human fibroblast
Format: toxicity, cell-based
applied conditions: 24 h, 1 µM, compound concentration 1 uM, replicate 1
Non-standard residues stand in square brackets, D forms with d. Residues, ends and D or L forms follow the SMILES beside them.
Kindly apply the following: true (1) if Population Tubulin-Different-Phenotype (%) is less than 30%, false (0) in every other case.

compound	assigned category
CC(C)(O)C(=O)N1CCN(c2ccc(C(F)(F)F)c(C3=C(c4c[nH]c5ccccc45)C(=O)NC3=O)c2)CC1	false (0)
O=C(O)CCC/C=C\CC1C(O)CC(O)C1/C=C/C(O)COc1cccc(Cl)c1 (configuration not stated) [CLOPROSTENOL]	true (1)
COCCCN1CCC(NC(=O)c2cc(Cl)c(N)c3c2OCC3)CC1 [PRUCALOPRIDE]	true (1)
Cc1cc(-c2ccc3c(c2)CC[C@H]3N2CC3(CCN(C(=O)Cc4cn5cc(C)sc5n4)CC3)C2)ncn1 [PF-5190457]	true (1)
COc1cc2nc(N3CCN(C(=O)c4ccco4)CC3)nc(N)c2cc1OC.Cl [PRAZOSIN HYDROCHLORIDE]	true (1)
CCC(=O)OCC(=O)[C@@]1(OC(=O)CC)[C@@H](C)C[C@H]2[C@@H]3CCC4=CC(=O)C=C[C@]4(C)[C@@]3(Cl)[C@@H](O)C[C@@]21C [BECLOMETHASONE DIPROPIONATE]	false (0)
O=C(NCCNCC(O)COc1ccc(O)cc1)N1CCOCC1.O=C(NCCNCC(O)COc1ccc(O)cc1)N1CCOCC1.O=C(O)/C=C/C(=O)O (configuration not stated) [XAMOTEROL FUMARATE]	true (1)
COc1ccc2[nH]c(I)c(CCNC(C)=O)c2c1 [IODOMELATONIN]	true (1)
Cn1cc(C(=O)OCC2CCN(CCNS(C)(=O)=O)CC2)c2ccccc21	true (1)
CC(C)C[C@@H]1NC(=O)[C@@H](C(C)C)NC(=O)[C@@H]2CCCN2C(=O)[C@@H](CC(=O)O)NC(=O)[C@@H](Cc2c[nH]c3ccccc23)NC1=O [BQ-123] (cyclo(L[dW][dD]P[dV]))	true (1)
Cc1nn(C)c2nc(NNC(=O)Nc3cc(Cl)nc(Cl)c3)cc(C(C)C)c12	true (1)
O=c1nc2[nH]c3ccccc3nc-2c(=O)[nH]1 [ALLOXAZINE]	true (1)
Cc1cc(O)c(-c2ccc([C@@H](C)CN(C)C)cc2)c2c1[nH]c(=O)c1sccc12	false (0)
S=C(NCCCc1c[nH]cn1)NCCCN(Cc1ccc(Cl)c(Cl)c1)c1ccc(Br)cn1	true (1)
COc1ccc2c(c1OCc1ccccc1)C[C@@H](C(=O)O)N(C(=O)C(c1ccccc1)c1ccccc1)C2 [OLODANRIGAN]	true (1)
COc1c(Nc2ccc(S(C)(=O)=O)nc2C)ncnc1OC1CCN(C(=O)OC(C)C)CC1 [ADP-597]	true (1)
COc1cc(C(=O)N2CC[C@@H](O)[C@@H](N)C2)cc2nc(-c3cc4ccccc4n3CC3CC3)n(C)c12.Cl	false (0)
C[C@H](NC(=O)CNC(=O)c1cccc(Cl)c1)c1ccccc1	true (1)
Cc1cc(NC(=O)NCCN2CCC(O)(Cc3ccccc3)CC2)c2ccccc2n1 [PALOSURAN]	true (1)
COC(c1ccccc1)(c1ccccc1)[C@H](Oc1nc(C)cc(C)n1)C(=O)O [AMBRISENTAN]	false (0)
Cc1sc2c(c1C)C(c1ccc(Cl)cc1)=N[C@H](CC(=O)OC(C)(C)C)c1nnc(C)n1-2	true (1)
CN1CCN(c2ccc(Nc3c4ccccc4nc4ccccc34)cc2)CC1.Cl.Cl.O	true (1)
CC(C)(C)c1ccc(CSc2cnn(C(C)(C)C)c(=O)c2Cl)cc1 [PYRIDABEN]	true (1)
CCCCC[C@H](O)/C=C/[C@H]1[C@H](O)CC(=O)[C@@H]1CCCCCCC(=O)O [ALPROSTADIL]	true (1)
Cc1c(Cc2ccc3ccccc3n2)c2cc(F)ccc2n1CC(=O)O [TIMAPIPRANT]	true (1)
CN(C)C(=O)Cn1cc(-c2ccc(-c3nnc4ccccn34)cc2)cn1	true (1)
Nc1nc(-c2ccco2)c2cnn(Cc3ccccc3F)c2n1	true (1)
C=CCN1C[C@H](C(=O)N(CCCN(C)C)C(=O)NCC)C[C@@H]2c3cccc4[nH]cc(c34)C[C@H]21 [CABERGOLINE]	false (0)
COc1cc2nc(N3CCN(C(=O)COc4c(OC)cccc4C(C)C)CC3)nc(N)c2cc1OC.Cl.Cl	false (0)
C[C@@H]1CC(=O)Nc2cccc(-c3ccc4c(c3)c(-c3cnn(C)c3)nn4C)c2N1	false (0)
O=c1ccc2ccc(OCCCCN3CCN(c4cccc5sccc45)CC3)cc2[nH]1 [BREXPIPRAZOLE]	false (0)
O=C(Nc1cc(-c2ccccc2)nn1-c1ccccc1F)c1ccc([N+](=O)[O-])cc1	true (1)
Nc1nc(CC(=O)Nc2ccc(CCNC[C@H](O)c3ccccc3)cc2)cs1 [MIRABEGRON]	true (1)
CN(C)C/C=C/C(=O)Nc1ccc(C(=O)N2CCCC(Nc3ncc(Cl)c(-c4c[nH]c5ccccc45)n3)C2)cc1 (configuration not stated)	false (0)
N[C@](CC1c2ccccc2Oc2ccccc21)(C(=O)O)[C@H]1C[C@@H]1C(=O)O	true (1)
